growth reference
Test system: CAKI-1 renal
Assay: NCI-60 one-dose screen, 48 h (100 = growth as untreated, 0 = no growth, -100 = all killed)
Conditions: 10 µM unless noted
About 83,000 compounds went through this panel and 20% of them were active in at least one assay; those are over-represented in the sample as a whole.

Molecule	growth (%)
C1=C2CCCC3=Cc4ccccc4OC23Oc2ccccc21	27.2
COC(=O)[C@@H](Cc1c[nH]c2ccccc12)NC(=O)[C@H](Cc1ccccc1)NCc1ccncc1	91.9
O=C1CCC(C(=O)N/N=C/c2ccc([N+](=O)[O-])cc2)N1 (configuration not stated)	93
O=C(OCc1ccc2c(Br)cc(Br)c(O)c2n1)N1CCN(C(=O)c2cc3ccccc3[nH]2)CC1	23
CN(CCNc1ccc(C(=N)N)cc1)c1ccc(C(=N)N)cc1	62
CC1=C2[C@@H](CC1)[C@]1(C)O[C@@](C(C)C)(C[C@H]1OC(=O)CO)[C@H]2OC(=O)CCCc1ccccc1	59.8
COC(=O)c1nc(-c2ccc(C)cc2)oc1N1CCOCC1	90.3
